# system under test: PAI-1 (Homo sapiens, UniProt P05121)
# Sequence (P05121 24-402): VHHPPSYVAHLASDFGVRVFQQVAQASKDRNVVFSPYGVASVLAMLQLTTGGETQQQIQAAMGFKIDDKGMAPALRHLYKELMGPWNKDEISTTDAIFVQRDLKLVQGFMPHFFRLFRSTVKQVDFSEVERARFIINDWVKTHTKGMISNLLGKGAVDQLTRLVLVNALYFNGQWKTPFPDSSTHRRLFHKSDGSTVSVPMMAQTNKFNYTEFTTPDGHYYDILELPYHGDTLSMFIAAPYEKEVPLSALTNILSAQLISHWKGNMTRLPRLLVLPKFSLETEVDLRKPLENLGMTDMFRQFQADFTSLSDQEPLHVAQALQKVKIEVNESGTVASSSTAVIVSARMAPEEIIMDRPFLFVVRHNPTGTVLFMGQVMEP
# assay: PAI chromogenic substrate assay (first S2251 assay, tPA/plasminogen system)
# Format: biochemical
# assay conditions: Concentration 50 μm
The class of a record is decided solely by its measured Inhibition of PAI-1 in the first S2251 chromogenic substrate assay; consult low interval = under 40%, middle interval = from 40% up to 70%, high interval = 70% and over

| compound | assigned class |
| --- | --- |
| CC(C)(C)c1ccc(/C=c2\[nH]c(=O)/c(=C/c3ccccc3)[nH]c2=O)cc1 [Compound 51] | middle interval |
| COC(=O)c1cccc(/C=c2\[nH]c(=O)/c(=C/c3ccccc3)[nH]c2=O)c1 [Compound 62] | low interval |
| COc1ccc(/C=c2\[nH]c(=O)/c(=C/c3ccc4ccccc4c3)[nH]c2=O)cc1 [Compound 27] | low interval |
| COc1ccc(/C=c2\[nH]c(=O)/c(=C/c3ccc(CNC(=O)OC(C)(C)C)cc3)[nH]c2=O)cc1 [Compound 56] | middle interval |
| O=c1[nH]/c(=C\c2cccc([N+](=O)[O-])c2)c(=O)[nH]/c1=C\c1cccc([N+](=O)[O-])c1 [Compound 35] | low interval |
| CC(=O)Nc1ccc(/C=c2\[nH]c(=O)/c(=C/c3ccccc3C(F)(F)F)[nH]c2=O)cc1 [Compound 78] | middle interval |
| COC(=O)CCCCOc1ccc(/C=c2\[nH]c(=O)/c(=C/c3ccccc3)[nH]c2=O)cc1 [Compound 96] | high interval |
| COc1ccc(/C=c2\[nH]c(=O)/c(=C/c3ccc(NC(=O)COC(C)=O)cc3)[nH]c2=O)cc1 [Compound 87] | high interval |
| CCOc1ccc(/C=c2\[nH]c(=O)/c(=C/c3ccccc3)[nH]c2=O)cc1 [Compound 25] | low interval |
| CC(C)Oc1ccc(/C=c2\[nH]c(=O)/c(=C/c3ccccc3)[nH]c2=O)cc1 [Compound 52] | middle interval |
| COc1ccc(/C=c2\[nH]c(=O)/c(=C/c3ccc(O)cc3Cl)[nH]c2=O)cc1 [Compound 84] | low interval |

Entry source: patent US5700804A
